Each entry below carries its reported growth inhibition.
assay: NCI Yeast Anticancer Drug Screen. Data for the rad50 strain (AID 155);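 further: 0% = growth of vehicle-only cultures of the same strain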; settings: S. cerevisiae rad50 strain growth inhibition; at 5.0 µM (retest, dose inferred, filed as 0.5); stronger effect = higher value
Compounds without any hit were thinned out: in the full panel of roughly 79,000, 15% have a hit. Calls of active or inactive are those of the source. No stated cut-off is given here; in the data, active means growth inhibition above about 70%; inactive means the rest.

Query string: Looking for the measured growth inhibition of CCCCCCCCNCCCCCCCC , can you help?
Result string: 67% (inactive)

Query string: Looking for the measured growth inhibition of CC(C)(CN1CCCCC1)C(=O)CC(SCCS(=O)(=O)O)c1ccccc1 (configuration not stated) , can you help?
Result string: 10% (inactive)

Query string: Looking for the measured growth inhibition of CCCCCCC1OCC(O)C(OCCCC)O1 (configuration not stated) , can you help?
Result string: -15% (inactive)

Query string: Looking for the measured growth inhibition of COc1ccc2nc(CCc3ccccc3)ccc2c1 , can you help?
Result string: -6% (inactive)

Query string: Looking for the measured growth inhibition of CC(C)N(CCCNc1c2ccccc2nc2cccc([N+](=O)[O-])c12)C(C)C , can you help?
Result string: 86% (active)

Query string: Looking for the measured growth inhibition of CC(=O)CCC1=C(C)C(=O)C(=O)C(C)=C1O , can you help?
Result string: -6% (inactive)

Query string: Looking for the measured growth inhibition of COc1c2c(c3c(c1CCC(=O)O)OC(C)(C)C=C3)OC(C)(C)C=C2 , can you help?
Result string: 15% (inactive)

Query string: Looking for the measured growth inhibition of O=C1CC(C(O)(C(F)(F)F)C(F)(F)Cl)CCC1C(O)(C(F)(F)F)C(F)(F)Cl (configuration not stated) , can you help?
Result string: 29% (inactive)

Query string: Looking for the measured growth inhibition of O=S(=O)(NNc1ccccc1)c1ccccc1 , can you help?
Result string: -20% (inactive)

Query string: Looking for the measured growth inhibition of O=CC1(F)CC1(c1ccccc1)c1ccccc1 (configuration not stated) , can you help?
Result string: -3% (inactive)

Query string: Looking for the measured growth inhibition of CSc1nc(-c2ccccc2)nc(=[N+]2CCOCC2)s1 , can you help?
Result string: 74% (active)

Query string: Looking for the measured growth inhibition of COc1cc([N+](=O)[O-])c2ncccc2c1Br , can you help?
Result string: 14% (inactive)

###

assay: NCI Yeast Anticancer Drug Screen. Data for the mec2-1 strain (AID 157); settings: S. cerevisiae mec2-1 strain, at 100.0 µM
The panel holds about 79,000 compounds, 15% with a hit somewhere; the sample as a whole holds those more often. Calls of active or inactive are those of the source. No stated cut-off is given here; in the data, active means growth inhibition above about 70%; inactive means the rest.
Thanks in advance; please answer with one of these: t = active, f = inactive

OC(c1ccccc1)(c1ccccc1)c1nccc2ccccc12 : f
Cc1ccc(NC(=O)CCC(=O)C(C)C(=O)c2ccccc2)c(C)c1 (stereo unspecified) : f
S=C1N(c2ccc(Cl)cc2)C2=C(N=Nc3ccccc3)C(=Nc3ccccc3S2)N1c1ccccn1 : t

Query string: Call for entry O=C1c2cccc3cccc(c23)C(=O)N1CCNCCN1C(=O)c2cccc3cccc(c23)C1=O :
Result string: f

Query string: Call for entry O=C1C[C@H]2[C@H](c3ccc(Br)cc3)[C@H]3C(=O)c4ccccc4NC(=O)[C@@H]3[C@@]2(O)c2ccccc2N1 :
Result string: f

Query string: Call for entry C=COC(=O)N[C@H]1CCc2cc(OC)c(OC)c(OC)c2-c2ccc(SC)c(=O)cc21 :
Result string: t

Query string: Call for entry CCCCCCNCCCNc1c2ccccc2nc2cccc([N+](=O)[O-])c12 :
Result string: t

###

test: NCI Yeast Anticancer Drug Screen. Data for the sgs1 strain (AID 173);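 further: 0% = growth of vehicle-only control cultures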; conditions: S. cerevisiae sgs1 mutant, at 100.0 µM
About 79,000 compounds went through this panel and 15% of them were active in at least one assay; those are over-represented in the sample as a whole. Active and inactive are the calls of the source. Rule as the data show it: active = growth inhibition above about 70%; inactive = the rest.
Thanks in advance; please answer with one of these: active, inactive

// below: answered compounds
Cc1ccc(S(=O)(=O)N/N=C/C(Br)=C(/Br)C(=O)O)cc1 : active
NCCCSc1ccccc1 : inactive
C[n+]1c(/C=C/c2ccc(/C=N/NC(=O)c3ccc(C(=O)N/N=C/c4ccc(/C=C/c5cn6ccccc6[n+]5C)cc4)cc3)cc2)cn2ccccc21 : active
Cc1ccc(S(=O)(=O)NC(=O)C2C(=O)CC3(CCCCC3)CC2=O)cc1 : active
CCCN=Cc1cc(Cc2ccc(O)c(C=NCCC)c2)ccc1O : active

Query string: Call for entry CCCCCCNCCCNc1c2ccccc2nc2cccc([N+](=O)[O-])c12 :
Result string: active

Query string: Call for entry CNCC(C)CNC :
Result string: inactive

Query string: Call for entry Brc1ccc(B2Nc3ccccc3N2)cc1 :
Result string: inactive

Query string: Call for entry O=C(O)C(=Cc1ccc(-c2ccccc2)cc1)C(=O)O :
Result string: active

###

test: NCI Yeast Anticancer Drug Screen. Data for the wt2 strain (AID 169);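 further: 0% = growth of vehicle-treated yeast cultures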; settings: S. cerevisiae wt2 strain growth inhibition; at 100.0 µM; stronger effect = higher value
This is part of a sample that, as a whole, favours compounds with a hit. Of some 79,000 tested, about 15% had one in any assay.
Each entry below carries its reported growth inhibition.
Hi! Could you send only the number? It should be in %, unit omitted.

Sample records with growth inhibition:
COc1cc(NCCCCNCC(C)(C)C)c2ncccc2c1 : 5
ClCCCOc1c(Cl)cc(Cl)cc1Cl : -8
O=C(Oc1ccc([N+](=O)[O-])cc1)c1ccc([N+](=O)[O-])cc1 : -5
Cc1cccc(/C=N/NC(=S)NC2CCCCC2)n1 : 18
Nc1cc2c(cc1N)-c1ccccc1C2=O : 41

Query string: Looking for the measured growth inhibition of O=C1CSC(c2ccccc2)N1c1ccc(-c2ccc(-n3c(-c4ccccc4)nc4ccccc4c3=O)cc2)cc1 (stereo not drawn) , can you help?
Result string: 28

Query string: Looking for the measured growth inhibition of CN(CCOc1ccc(Cl)cc1)CCOc1ccc(Cl)cc1 , can you help?
Result string: 99

Query string: Looking for the measured growth inhibition of COc1cc2c(cc1OC)[C@@H](Nc1ccc(C#N)cc1)C1COC(=O)[C@@H]1C2c1cc(OC)c(O)c(OC)c1 (stereo partly drawn) , can you help?
Result string: 93

Query string: Looking for the measured growth inhibition of CC(C)OC(=O)NNc1cccc(Cl)c1 , can you help?
Result string: 98

Query string: Looking for the measured growth inhibition of C[C@H](CCC1=NC(C)(C)CO1)C1CCC2[C@@H]3C(O)C[C@@H]4CC(O)CC[C@]4(C)C3CC[C@@]21C (stereo partly drawn) , can you help?
Result string: 100

Query string: Looking for the measured growth inhibition of O=C(c1ccccc1)[C@H]1Nc2ccc(Cl)cc2[C@H]2OCCC[C@@H]12 , can you help?
Result string: 81

###

assay: NCI Yeast Anticancer Drug Screen. Data for the rad50EPP+ strain (AID 151);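 further: 0% = growth of vehicle-treated control cultures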; conditions: S. cerevisiae rad50 mutant strain, at 3.7 µM, stronger effect = higher value
This is part of a sample that, as a whole, favours compounds with a hit. Of some 79,000 tested, about 15% had one in any assay. Active and inactive are the calls of the source. No stated cut-off is given here; in the data, active means growth inhibition above about 70%; inactive means the rest.
PARAMETER: growth inhibition

Sample records with growth inhibition:
CC(C)(Br)C(=O)/C=C/c1ccccc1 : 51% (inactive)
O=S(=O)(c1ccccc1)N1CN2CN(C1)CN(S(=O)(=O)c1ccccc1)C2 : -15% (inactive)
CN(C)CCCn1c2c3ccccc3ccc2c2oc(=O)c3ccccc3c21 : 58% (inactive)

Query string: Looking for the measured growth inhibition of NC(=O)NC1C(c2ccccc2)=C1c1ccccc1 , can you help?
Result string: 73% (active)

Query string: Looking for the measured growth inhibition of CCOP(=O)(OCC)/C(C#N)=C\c1cccc2ccccc12 , can you help?
Result string: 10% (inactive)

Query string: Looking for the measured growth inhibition of O=C(Nc1cccs1)c1ccccc1 , can you help?
Result string: 7% (inactive)

Query string: Looking for the measured growth inhibition of Fc1cc(F)c(F)c(S)c1F , can you help?
Result string: -18% (inactive)

Query string: Looking for the measured growth inhibition of COC(=O)C1CCCCC1C(=O)Nc1ccccc1 (configuration not stated) , can you help?
Result string: -1% (inactive)

Query string: Looking for the measured growth inhibition of CCOP(=O)(OCC)/C(C#N)=C/c1cccc(Oc2ccccc2)c1 , can you help?
Result string: -7% (inactive)

Query string: Looking for the measured growth inhibition of COc1cc([N+](=O)[O-])c2ncccc2c1Br , can you help?
Result string: 16% (inactive)

Query string: Looking for the measured growth inhibition of CCN1CCC(O)(c2ccc(Oc3ccc(Cl)cc3)cc2)C(C(=O)c2ccc(Oc3ccc(Cl)cc3)cc2)C1 (configuration not stated) , can you help?
Result string: 0% (inactive)

###

assay: NCI Yeast Anticancer Drug Screen. Data for the rad14 strain (AID 159);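 further: 0% = growth of vehicle-treated control cultures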; settings: S. cerevisiae rad14 strain growth inhibition; at 11.0 µM
The panel holds about 79,000 compounds, 15% with a hit somewhere; the sample as a whole holds those more often. The source made the active and inactive calls. Cut-off read from the data, not from the text of the source: active = growth inhibition above about 70%; inactive = the rest.
Thanks in advance; please answer with one of these: t (active), f (inactive)

// below: answered molecules
COc1ccc(C2CC(C)(N3CCCC3)Oc3cc4c(cc32)OCO4)cc1 (configuration not stated) : f
N#[N+]c1c([O-])c2ccccc2c2ccccc12 : f
OC1(C#CI)CCCCC1 : t

Query string: Call for entry Cc1ccccc1NC(=O)c1c(C)oc2c1C(=O)c1ccccc1C2=O :
Result string: f

Query string: Call for entry CCCCCCCCCCCCCCN :
Result string: f

Query string: Call for entry CCN(CC)CCNc1ccc2nc(C)n3c4ccc(OC)cc4c(=O)c1c23 :
Result string: f

Query string: Call for entry CN(C)CC1=Nc2cccc3cccc(c23)N1 :
Result string: f

Query string: Call for entry S=C1N(c2ccc(Cl)cc2)C2=C(N=Nc3ccccc3)C(=Nc3ccccc3S2)N1c1ccccn1 :
Result string: f

Query string: Call for entry CCN(CC)CCNc1ccc2nc(C)n3c4ccc(O)cc4c(=O)c1c23 :
Result string: f

Query string: Call for entry O=C(C(Cl)=C(N1CCCCC1)N1CCCCC1)C(Cl)Cl :
Result string: f

Query string: Call for entry CC(C)(N=Nc1ccc(Cl)cc1)[N+](=O)[O-] :
Result string: t

Query string: Call for entry NC(=S)N/N=C1\c2ccccc2CCC1CCC1(O)CCc2ccccc2C1=O (configuration not stated) :
Result string: f
